Each recorded value in this set is attributed to the supplement of paper PMC9170038.

Tested on: MS2 coat protein
Assay: apparent KD of MS2 coat protein; designed switch direction (-1 OFF switch, 1 ON switch): -1; higher = weaker reporter binding
Details: input ligand: microRNA oligo, concentration not stated
Is apparent KD of MS2 coat protein at least 10 nM? Then label 1. If not, label 0.

>  <RESIDUES>
GUGCUAUGAGGAUAUACGUUGGUGGGCAUCUGUGUGCUCCUACAUGAGGAUCACCCAUGUAGAAGGCAUGUCAC [LRO-Excl2-20] (Eterna round: R96, puzzle: Exclusion 2)

>  <MEASURED_TARGET>
MS2 coat protein

>  <CAT>
label 0

$$$$
>  <RESIDUES>
UUAAAGGCAGGAUAUACAUUUUUUUUAUUAUCCUCAUUAUUACAUGAGGAUCACCCAUGUAGAAGGGCCAAAUU [Mat - Exclusion 2 - Mod of Hog - D85] (Eterna round: R96, puzzle: Exclusion 2)

>  <MEASURED_TARGET>
MS2 coat protein

>  <CAT>
label 1

$$$$
>  <RESIDUES>
UUUUUAUAUGAAGGAUAUACUUAACAUGAGGAUCACCCAUGUGGUGUUGUGAGUGAGUGAGUUUAGUAGAAGGUCAAGUACUUU [JMF's solution 37] (Eterna round: R96, puzzle: Exclusion NG 2)

>  <MEASURED_TARGET>
MS2 coat protein

>  <CAT>
label 1

$$$$
>  <RESIDUES>
AUUUAAUUUAAUAAGAUCACAUGAGGAUCACCCAUGUUAUAAUAGGAUAUCAGCUCGUGUAGAGCUGAGAAGGAUUAUAACAUG [ExNG3/9-A3] (Eterna round: R96, puzzle: Exclusion NG 3)

>  <MEASURED_TARGET>
MS2 coat protein

>  <CAT>
label 1

$$$$
